# test name: Half life in mouse plasma
# Type: ADME, organism-based
property measured: half-life (h)
Answer with a number only, understood to be in h.

Give its half-life value. Item: CC1(C)Cc2nc(C3CCCC3)c([C@@H](F)c3ccc(C(F)(F)F)cc3)c(C3CCCCC3)c2[C@@H](O)C1
5

---

# test name: Oral bioavailability in dog
# Type: ADME, organism-based, Canis lupus familiaris
# setup conditions: in vivo
property measured: bioavailability

Give its bioavailability value. Item: CC1(C)Cc2nc(C3CCCC3)c([C@@H](F)c3ccc(C(F)(F)F)cc3)c(C3CCCCC3)c2[C@@H](O)C1
74%

---

# test name: Half life in dog plasma
# Format: ADME, organism-based, Canis lupus familiaris
property measured: half-life (h)
Answer with a number only, understood to be in h.

Give its half-life value. Item: CC1(C)Cc2nc(C3CCCC3)c([C@@H](F)c3ccc(C(F)(F)F)cc3)c(C3CCCCC3)c2[C@@H](O)C1
8.6

---

Listing: pIC50 of selected compounds
# system name: Cholesteryl ester transfer protein (Homo sapiens, UniProt P11597)
# Sequence (P11597 whole entry): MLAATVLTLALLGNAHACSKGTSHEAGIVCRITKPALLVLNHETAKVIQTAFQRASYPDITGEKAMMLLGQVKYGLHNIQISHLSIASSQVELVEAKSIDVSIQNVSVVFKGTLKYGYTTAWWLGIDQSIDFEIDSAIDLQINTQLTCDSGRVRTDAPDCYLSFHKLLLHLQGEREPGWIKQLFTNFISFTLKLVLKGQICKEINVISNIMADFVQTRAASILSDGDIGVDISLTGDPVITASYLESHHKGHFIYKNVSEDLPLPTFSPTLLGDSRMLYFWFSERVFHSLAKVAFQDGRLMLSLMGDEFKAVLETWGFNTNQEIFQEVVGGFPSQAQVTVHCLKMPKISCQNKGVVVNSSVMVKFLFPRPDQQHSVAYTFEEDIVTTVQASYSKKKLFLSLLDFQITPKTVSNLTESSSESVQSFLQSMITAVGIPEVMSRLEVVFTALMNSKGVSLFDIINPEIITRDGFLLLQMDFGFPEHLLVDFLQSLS
# test name: Inhibition of human plasma CETP assessed as cholesterol ester transfer after 24 hrs by fluorescence assay
# Format: cell-free
Remember the convention: pIC50 equals -log10 of concentration in molar.

Completed entries (count: 4):
smiles code	system name	pIC50
CC1(C)Cc2nc(C3CCCC3)c(Cc3ccc(C(F)(F)F)cc3)c(C3CCCCC3)c2[C@@H](O)C1	Cholesteryl ester transfer protein (Homo sapiens, UniProt P11597)	6.52
O[C@H]1CC2(CCC2)Cc2nc(C3CCCC3)c([C@@H](F)c3ccc(C(F)(F)F)cc3)c(C3CCCCC3)c21	Cholesteryl ester transfer protein (Homo sapiens, UniProt P11597)	7.22
CC(C)c1nc2c(c(C3CCCCC3)c1[C@@H](F)c1ccc(C(F)(F)F)cc1)[C@@H](O)CC(C)(C)C2	Cholesteryl ester transfer protein (Homo sapiens, UniProt P11597)	7.12
CC(C)c1nc2c(c(C3CCCCC3)c1[C@@H](F)c1ccc(C(F)(F)F)cc1)[C@@H](O)CC1(CCC1)C2	Cholesteryl ester transfer protein (Homo sapiens, UniProt P11597)	7.15

# ---- query compound ----
Give its pIC50 value. Item: CC1(C)Cc2nc(C3CCCC3)c([C@@H](F)c3ccc(C(F)(F)F)cc3)c(C3CCCCC3)c2[C@@H](O)C1
7.30

---

# test name: Oral bioavailability in rat
# Type: ADME, organism-based
# setup conditions: in vivo
property measured: bioavailability (%)
Answer with a number only, understood to be in %.

Give its bioavailability value. Item: CC1(C)Cc2nc(C3CCCC3)c([C@@H](F)c3ccc(C(F)(F)F)cc3)c(C3CCCCC3)c2[C@@H](O)C1
44

---

# system name: Cholesteryl ester transfer protein (Homo sapiens, UniProt P11597)
# test name: Inhibition of human plasma CETP assessed as [3H]cholesterol ester transfer after 18 hrs by scintillation proximity assay
# Format: cell-free
Listing: IC50 of selected compounds
Answer with a number only, understood to be in nM.

Give its IC50 value. Item: CC1(C)Cc2nc(C3CCCC3)c([C@@H](F)c3ccc(C(F)(F)F)cc3)c(C3CCCCC3)c2[C@@H](O)C1
7

Give its IC50 value. Item: CC(C)c1nc2c(c(C3CCCCC3)c1[C@@H](F)c1ccc(C(F)(F)F)cc1)[C@@H](O)CC1(CCC1)C2
33

Give its IC50 value. Item: CC(C)c1nc2c(c(C3CCCCC3)c1[C@@H](F)c1ccc(C(F)(F)F)cc1)[C@@H](O)CC(C)(C)C2
23

Give its IC50 value. Item: O[C@H]1CC2(CCC2)Cc2nc(C3CCCC3)c([C@@H](F)c3ccc(C(F)(F)F)cc3)c(C3CCCCC3)c21
62
